experiment: Primary redox qHTS assay for identification of artifact compounds. (AID 1845223); conditions: Amplex Red/HRP redox cycling with DTT, fluorescence; series mostly up to 53.8 µM;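 note: 0% = DMSO and 100% = reference compound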
Records with an inconclusive call do not appear. Active and inactive are the calls of the source. Calls come from the whole dose curve; as a rule, active = well fitted activation curve with a large enough effect; inconclusive = small, poorly fitted or top-dose-only effect; inactive = flat fitted curve, though single readings scatter.
Readout Kind: redox activity (% of DA3003)

Below, each entry is followed by its recorded redox activity (% of DA3003) result.
Compound	redox activity (% of DA3003)
CC1(C)CC[C@]2(C(=O)O)CC[C@]3(C)C(=CCC4[C@@]5(C)C[C@@H](O)[C@H](O)[C@@](C)(CO)C5CC[C@]43C)C2C1 (stereo partly specified)	inactive
O=C(Cc1ccccc1)OC[C@H]1O[C@H](O[C@H]2O[C@H](CO)[C@@H](O)[C@H](O)[C@H]2O)[C@H](O)[C@@H](O)[C@@H]1O	inactive
COc1ccc(/C=C/C(=O)O[C@@H]2[C@@H](OC(C)=O)[C@@H](OC(C)=O)[C@H](O[C@H]3[C@@H]4C=CO[C@@H](O[C@@H]5O[C@H](CO)[C@@H](O)[C@H](O)[C@H]5O)[C@@H]4[C@@]4(CO)O[C@@H]34)O[C@H]2C)cc1	inactive
CC(C)=CCC[C@](C)(O[C@@H]1O[C@H](CO[C@@H]2O[C@@H](CO)[C@H](O)[C@H]2O[C@@H]2OC[C@@H](O)[C@H](O)[C@H]2O)[C@@H](O)[C@H](O)[C@H]1O)[C@H]1CC[C@]2(C)[C@@H]1[C@H](O)CC1[C@@]3(C)CC[C@H](O[C@@H]4O[C@H](CO)[C@@H](O)[C@H](O)[C@H]4O[C@@H]4O[C@H](CO)[C@@H](O)[C@H](O)[C@H]4O)C(C)(C)C3CC[C@]12C (stereo partly specified)	-2.65% [at 11.5 µM] (inactive)

Now for another entry.
-- ask Would you kindly share the measured redox activity (% of DA3003) for COc1cc(/C=C/C(=O)O[C@@H]2O[C@H](CO)[C@@H](O)[C@H](O)[C@H]2O)ccc1O ?
-- reply inactive

----------
test system: HEK293; assay: Cytotoxic Profiling of Annotated Libraries Using Quantitative High-Throughput Screening (AID 1296008); settings: Five cell lines viability, CellTiter-Glo ATP luminescence, 48-72 h; active compounds read low; note: % is set by controls: 0 for no effect and ±100 for the full control effect; nearly all actives have a fitted effect of over 60% in size
Inconclusive results are not listed. Active and inactive are the calls of the source. Calls follow the shape of the dose curve; as a rule, active = well fitted inhibition curve with a large enough effect; inconclusive = small, poorly fitted or top-dose-only effect; inactive = flat fitted curve, though single readings scatter.
Each record here notes measured max response.

Below, each entry is followed by its recorded max response result.
Compound	max response
CC1CC(O)/C=C/C(O)/C=C\C(=O)O1 (centres undefined)	-11.1% (inactive)
CC1CCC2(NC1)OC1C(O)C3C4CCC5CC(O[C@@H]6O[C@H](CO)[C@@H](O)[C@H](O)[C@H]6O[C@@H]6O[C@@H](C)[C@H](O)[C@@H](O)[C@H]6O)CCC5(C)C4CCC3(C)C1C2C (some centres undefined)	2.08% (inactive)
O=C(C[C@@H]1C(C(=O)O)=CO[C@@H](O[C@@H]2O[C@H](CO)[C@@H](O)[C@H](O)[C@H]2O)/C1=C\CO)OCCc1ccc(O)c(O)c1	2.23% (inactive)

Now for another entry.
-- ask Would you kindly share the measured max response for COc1cc(/C=C/C(=O)O[C@H]2[C@@H]3C=CO[C@@H](O[C@@H]4O[C@H](CO)[C@@H](O)[C@H](O)[C@H]4O)[C@@H]3[C@@]3(CO)O[C@@H]23)ccc1O ?
-- reply 1.49% (inactive)
